- Tested on: MCF7
- Assay Comment: NCI 60 growth inhibition
- Type: cell-based, human
- Experimental Conditions: Homo sapiens; MCF7, Breast Cancer, Table 2
Please note: GI50 exactly at 0.3 µM is criterion not met. Only values below 0.3 µM get criterion met.

{"Query Smiles": "C=C1C(=O)O[C@H]2[C@H]1CC/C(Cn1cc(-c3cc(C(F)(F)F)cc(C(F)(F)F)c3)nn1)=C\\CC[C@@]1(C)O[C@@H]21", "Label": "criterion met"}
{"Query Smiles": "C=C1C(=O)O[C@H]2[C@H]1CC/C(Cn1cc(-c3ccc(F)cc3)nn1)=C\\CC[C@@]1(C)O[C@@H]21", "Label": "criterion not met"}
{"Query Smiles": "C=C1C(=O)O[C@H]2[C@H]1CC/C(Cn1cc(-c3ccccc3)nn1)=C\\CC[C@@]1(C)O[C@@H]21", "Label": "criterion not met"}
{"Query Smiles": "C=C1C(=O)O[C@H]2[C@H]1CC/C(Cn1cc(-c3cccc(Cl)c3)nn1)=C\\CC[C@@]1(C)O[C@@H]21", "Label": "criterion not met"}
{"Query Smiles": "C=C1C(=O)O[C@H]2[C@H]1CC/C(Cn1cc(-c3ccc(OC)cc3)nn1)=C\\CC[C@@]1(C)O[C@@H]21", "Label": "criterion not met"}
{"Query Smiles": "C=C1C(=O)O[C@H]2[C@H]1CC/C(Cn1cc(CCC)nn1)=C\\CC[C@@]1(C)O[C@@H]21", "Label": "criterion not met"}
